// endpoint IC50 / system alpha-Glucosidase (Cat No. 5003-1KU Type I) (Saccharomyces cerevisiae)
Field format: number, assumed µM, no unit text.

Worked examples, 3 compounds total:
>>> reported("CCCCn1nnc2ccc(NS(=O)(=O)c3ccc([N+](=O)[O-])cc3)cc2c1=O [Compound 12f]")
37.8
>>> reported("CCCn1nnc2ccc(NS(=O)(=O)c3ccc([N+](=O)[O-])cc3)cc2c1=O [Compound 12e]")
32.4
>>> reported("CCCn1nnc2ccc(NS(=O)(=O)c3ccc(OC)cc3)cc2c1=O [Compound 12b]")
39.2

Using known records, supply IC50 for CCCn1nnc2ccc(NS(=O)(=O)c3ccc(Cl)cc3)cc2c1=O [Compound 12c]
53.8

Using known records, supply IC50 for CCCn1nnc2ccc(NS(=O)(=O)c3ccc(Br)cc3)cc2c1=O [Compound 12d]
55.2

----------
Measured quantity: melting point

>>> reported("CCCCn1nnc2ccc(NS(=O)(=O)c3ccc([N+](=O)[O-])cc3)cc2c1=O [Compound 12f]")
"179 to 181 °C"
>>> reported("CCCCn1nnc2ccc([N+](=O)[O-])cc2c1=O [Compound 10b]")
"217 to 218 °C"

Using known records, supply melting point for CCCn1nnc2ccc(NS(=O)(=O)c3ccc([N+](=O)[O-])cc3)cc2c1=O [Compound 12e]
167 to 169 °C

Using known records, supply melting point for CCCn1nnc2ccc(N)cc2c1=O [Compound 11a]
185 to 186 °C

Using known records, supply melting point for CCCn1nnc2ccc(NS(=O)(=O)c3ccccc3)cc2c1=O [Compound 12a]
171 to 173 °C

Using known records, supply melting point for CCCn1nnc2ccc(NS(=O)(=O)c3ccc(Cl)cc3)cc2c1=O [Compound 12c]
169 to 171 °C

Using known records, supply melting point for CCCn1nnc2ccc([N+](=O)[O-])cc2c1=O [Compound 10a]
215 to 217 °C

Using known records, supply melting point for CCCCNC(=O)c1cc([N+](=O)[O-])ccc1N [Compound 9b, 2-Amino-5-nitro-N-butylbenzamide]
197 to 199 °C

Using known records, supply melting point for CCCCn1nnc2ccc(N)cc2c1=O [Compound 11b]
191 to 192 °C

Using known records, supply melting point for CCCn1nnc2ccc(NS(=O)(=O)c3ccc(OC)cc3)cc2c1=O [Compound 12b]
175 to 177 °C

Using known records, supply melting point for CCCNC(=O)c1cc([N+](=O)[O-])ccc1N [Compound 9a, 2-Amino-5-nitro-N-propylbenzamide]
195 to 197 °C
